The measurements presented in this section are drawn from patent US20220362249A1.

EXPERIMENTAL_PROTOCOL: Pharmacokinetic analysis of multiple doses of sepiapterin (once daily for 7 days, fed subjects)
Type: in vivo, human
RECORDED_CONDITIONS: human, plasma, 5 mg/kg, Day 7; sepiapterin 5 mg/kg once daily; fed; read-out: Cmax
VALUE_TYPE: Cmax (ng/mL)

INSERT INTO results (molecule, value_type, unit_spec, quantitative_readout) VALUES
  ('C[C@H](O)[C@H](O)[C@H]1CNc2nc(N)[nH]c(=O)c2N1 [BH4, Tetrahydrobiopterin]', 'Cmax', 'ng/mL', 152);

---

EXPERIMENTAL_PROTOCOL: Food effect on administration of sepiapterin: plasma sepiapterin and BH4 concentrations, fasted vs fed
Format: in vivo, human
RECORDED_CONDITIONS: human, plasma, oral, 10 mg/kg, fasted; sepiapterin 10 mg/kg oral; 4 h; read-out: Concentration in Plasma, Median
VALUE_TYPE: concentration at 4 h (nM)

INSERT INTO results (molecule, quantitative_readout) VALUES
  ('C[C@H](O)[C@H](O)[C@H]1CNc2nc(N)[nH]c(=O)c2N1 [BH4, Tetrahydrobiopterin]', 635),
  ('C[C@H](O)C(=O)C1=Nc2c(nc(N)[nH]c2=O)NC1 [sepiapterin, Sepiapterin]', 2.37);

---

EXPERIMENTAL_PROTOCOL: Pharmacokinetic analysis of multiple doses of sepiapterin (once daily for 7 days, fed subjects)
Format: in vivo, human
RECORDED_CONDITIONS: human, plasma, 20 mg/kg, Day 1; sepiapterin 20 mg/kg once daily; fed
Source text: Methods: Three cohorts of eight fed subjects each were randomized to receive once-daily sepiapterin or placebo for 7 days in a 6:2 ratio. A sentinel dose strategy was also used for administration of the highest sepiapterin dose.
VALUE_TYPE: Tmax

INSERT INTO results (molecule, value_type, result) VALUES
  ('C[C@H](O)[C@H](O)[C@H]1CNc2nc(N)[nH]c(=O)c2N1 [BH4, Tetrahydrobiopterin]', 'Tmax', '4 h');

---

EXPERIMENTAL_PROTOCOL: Food effect on administration of sepiapterin: plasma sepiapterin and BH4 concentrations, fasted vs fed
Type: in vivo, human
RECORDED_CONDITIONS: human, plasma, oral, 10 mg/kg, fed (high-fat meal); sepiapterin 10 mg/kg oral; 1 h; read-out: Concentration in Plasma, Maximum
concentration at 1 h reference
VALUE_TYPE: concentration at 1 h (nM)

INSERT INTO measurements (compound, value_type, quantitative_readout) VALUES
  ('C[C@H](O)C(=O)C1=Nc2c(nc(N)[nH]c2=O)NC1 [sepiapterin, Sepiapterin]', 'concentration at 1 h', 4.57),
  ('C[C@H](O)[C@H](O)[C@H]1CNc2nc(N)[nH]c(=O)c2N1 [BH4, Tetrahydrobiopterin]', 'concentration at 1 h', 369);

---

EXPERIMENTAL_PROTOCOL: Pharmacokinetic analysis of multiple doses of sepiapterin (once daily for 7 days, fed subjects)
Assay type: in vivo, human
RECORDED_CONDITIONS: human, plasma, 60 mg/kg, Day 1; sepiapterin 60 mg/kg once daily; fed; read-out: Cmax
VALUE_TYPE: Cmax (µg/mL)

INSERT INTO results (molecule, value_type, quantitative_readout) VALUES
  ('C[C@H](O)[C@H](O)[C@H]1CNc2nc(N)[nH]c(=O)c2N1 [BH4, Tetrahydrobiopterin]', 'Cmax', 0.597);
